src = the supplement of paper PMC10065799

Molecular target: Fyn (UniProt P06241)
Sequence (P06241 whole entry, looked up): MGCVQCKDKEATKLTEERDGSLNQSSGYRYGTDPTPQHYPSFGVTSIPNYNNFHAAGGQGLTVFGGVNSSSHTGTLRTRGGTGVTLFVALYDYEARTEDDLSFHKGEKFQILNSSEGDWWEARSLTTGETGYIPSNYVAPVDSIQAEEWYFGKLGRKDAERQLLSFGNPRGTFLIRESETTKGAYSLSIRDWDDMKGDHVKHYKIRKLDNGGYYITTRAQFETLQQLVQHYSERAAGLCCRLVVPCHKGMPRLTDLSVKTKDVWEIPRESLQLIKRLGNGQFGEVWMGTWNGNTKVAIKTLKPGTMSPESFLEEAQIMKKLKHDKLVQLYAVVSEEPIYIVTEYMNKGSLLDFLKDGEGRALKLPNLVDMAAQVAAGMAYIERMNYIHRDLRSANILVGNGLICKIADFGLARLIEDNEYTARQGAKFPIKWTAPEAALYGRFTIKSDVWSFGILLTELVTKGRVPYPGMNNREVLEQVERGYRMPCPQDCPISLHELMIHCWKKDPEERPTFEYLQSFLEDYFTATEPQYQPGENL
Assay: phosphorylation enrichment, bacterial display (enrichment ratio); higher = better substrate or ligand; peptides without Tyr show the background;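 further: 11-residue human phosphosite peptides and single-mutation variants displayed on the E. coli surface, counted by deep sequencing, each peptide's frequency after selection divided by its frequency in the unselected input library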;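 further: frequency after pTyr selection over input frequency; kinase dosed for 20-30% of maximal phosphorylation in three min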
readout: phosphorylation enrichment
Respond using a number only.

Please review the following examples before continuing.
{"residue_string": "RSSKTYLKTRS [LPL_Y329_M328T]", "study_system": "Fyn (UniProt P06241)", "phosphorylation enrichment": 0.593}
{"residue_string": "LVSCTYQLATG [FGFR2_Y608_R612T]", "study_system": "Fyn (UniProt P06241)", "phosphorylation enrichment": 0.596}

Now take the following sequence into account.
Query TKLKDYFIFNK [CCDC42_Y149_A144T_YF] yields phosphorylation enrichment of 0.419
